Origin of measurements: patent US8975264B2

- TEST SYSTEM: human CB1 (cannabinoid receptor 1) (Homo sapiens)
- TEST PROTOCOL: CB1 receptor inhibition effect: calcium ion influx assay (Fluo-4 NW) in Chem-1 cells after 1 μM R-(+)-WIN55212-2
- MEASUREMENT SETUP: calcium ion influx in Chem-1 cells expressing human CB1, 1 μM R-(+)-WIN55212-2
TEST READOUT: IC50 (µM)
Numbers only, in µM.

Below are worked cases with known answers.
COCc1nn2c(-c3cccc(C#N)c3)cc(N3CCC[C@H]3CO)nc2c1-c1ccc(OC)cc1 [Example 228]
0.022
COCc1nn2c(-c3cccc(C)c3)cc(N(C)CCO)nc2c1-c1ccc(Cl)cc1 [Example 262]
0.018
COc1ccc(-c2c(C)nn3c(-c4ccccc4F)cc(N4CCC[C@H]4CO)nc23)cc1 [Example 39]
0.25
CCCOc1ccc(-c2c(C)nn3c(-c4cccc(C(F)(F)F)c4)cc(N4CCC[C@H]4CO)nc23)cc1 [Example 133]
0.28
Cc1nn2c(-c3ccc(F)cc3)cc(N3CCC[C@H]3CO)nc2c1-c1ccc(OC(C)C)cc1 [Example 85]
0.47

Hello, I would appreciate it if you could give IC50 for each entry below.
1. COc1ccc(-c2c(C)nn3c(-c4ccc(F)cc4)cc(N4CCC[C@H]4CO)nc23)cc1 [Example 64]
2. Cc1cccc(-c2cc(N3CCC[C@H]3CO)nc3c(-c4ccc5c(c4)OCO5)c(C)nn23)c1 [Example 159]
3. Cc1nn2c(-c3cccc(F)c3)cc(N3CCC[C@H]3CO)nc2c1-c1ccc2c(c1)OCO2 [Example 113]
4. CCOCc1nn2c(-c3cccc(OC)c3)cc(NCCO)nc2c1-c1ccc2c(c1)OCO2 [Example 268]
5. CCOCc1nn2c(-c3cccc(F)c3)cc(N(C)CCO)nc2c1-c1ccc(C)cc1 [Example 240]
6. CCOCc1nn2c(-c3ccc(F)cc3)cc(N3CCC[C@H]3CO)nc2c1-c1ccc(OC)cc1 [Example 209]
7. COc1ccc(-c2c(C)nn3c(-c4cccc(OC)c4)cc(N4CCC[C@H]4CO)nc23)cc1 [Example 41]
8. CCOc1ccc(-c2c(C)nn3c(-c4cccc(C)c4)cc(N4CCC[C@H]4CO)nc23)cc1 [Example 158]

Solution:
1. 0.17
2. 0.2
3. 0.049
4. 0.3
5. 0.01
6. 0.053
7. 0.26
8. 0.21

Quick batch: IC50 for everything below.
1. CSc1ccc(-c2c(C)nn3c(-c4cccc(C)c4)cc(N4CCC[C@H]4CO)nc23)cc1 [Example 162]
2. Cc1ccc(-c2c(C)nn3c(-c4cccc(Cl)c4)cc(N4CCC[C@H]4CO)nc23)cc1F [Example 176]
3. Cc1nn2c(-c3ccc(F)cc3)cc(N3CCC[C@H]3CO)nc2c1-c1ccccc1 [Example 83]

Solution:
0.11
0.27
0.22

* * *

Record form. Attribute: IC50. Fill in for each entry.
- TEST SYSTEM: human CB1 (cannabinoid receptor 1) (Homo sapiens, UniProt P21554)
- Sequence (P21554 whole entry): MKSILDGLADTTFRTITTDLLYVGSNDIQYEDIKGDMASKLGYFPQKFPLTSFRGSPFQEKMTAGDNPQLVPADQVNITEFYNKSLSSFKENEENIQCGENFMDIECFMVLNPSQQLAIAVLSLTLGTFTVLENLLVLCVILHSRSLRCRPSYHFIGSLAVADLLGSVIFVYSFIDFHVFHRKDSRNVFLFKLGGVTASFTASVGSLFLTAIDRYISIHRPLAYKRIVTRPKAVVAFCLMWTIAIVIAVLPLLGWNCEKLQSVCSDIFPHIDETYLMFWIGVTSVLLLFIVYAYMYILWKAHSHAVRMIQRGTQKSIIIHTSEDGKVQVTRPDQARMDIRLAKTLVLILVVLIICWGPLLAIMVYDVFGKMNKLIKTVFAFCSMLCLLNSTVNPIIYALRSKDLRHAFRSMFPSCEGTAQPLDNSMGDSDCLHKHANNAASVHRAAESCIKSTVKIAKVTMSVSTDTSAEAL
- TEST PROTOCOL: CB1 receptor inhibition effect: calcium ion influx assay (Fluo-4 NW) in Chem-1 cells after 1 μM R-(+)-WIN55212-2
- MEASUREMENT SETUP: calcium ion influx in Chem-1 cells expressing human CB1, 1 μM R-(+)-WIN55212-2
Answers are plain numbers, in nM.

Some solved entries appear below for comparison.
Cc1cccc(-c2cc(N3CCC[C@H]3CO)nc3c(-c4ccc(F)cc4)c(C)nn23)c1
250
COc1ccc(-c2c(C)nn3c(-c4cccc(Cl)c4)cc(N4CCC[C@H]4CO)nc23)cc1
33
COc1ccc(-c2c(C)nn3c(-c4ccc(F)c(Cl)c4)cc(N4CCC[C@H]4CO)nc23)cc1
190
CCCCc1nn2c(-c3cccc(C)c3)cc(N3CCC[C@H]3CO)nc2c1-c1ccc(C)cc1
30
Cc1nn2c(-c3ccc(Cl)cc3)cc(N3CCC[C@H]3CO)nc2c1-c1ccc(Cl)cc1
350

Record IC50 for all entries; do not skip any.
1. COCc1nn2c(-c3ccc(F)cc3)cc(N3CCC[C@H]3CO)nc2c1-c1ccc(Cl)cc1
2. CCOCc1nn2c(-c3cccc(Cl)c3)cc(N3CCC[C@H]3CO)nc2c1-c1ccc2c(c1)OCO2
3. Cc1ccc(-c2c(C)nn3c(-c4ccc(F)cc4F)cc(N4CCC[C@H]4CO)nc23)cc1
4. Cc1ccc(-c2c(C)nn3c(-c4cc(F)cc(F)c4)cc(N4CCC[C@H]4CO)nc23)cc1
5. Cc1ccc(-c2cnn3c(-c4ccc(F)c(F)c4)cc(N4CCC[C@H]4CO)nc23)cc1

Solution:
1. 7
2. 150
3. 220
4. 410
5. 690

Please go through the list and note IC50 for each molecule.
1. CCOc1ccc(-c2c(C)nn3c(-c4cccc(C(F)(F)F)c4)cc(N4CCC[C@H]4CO)nc23)cc1
2. Cc1nn2c(-c3ccc(F)cc3)cc(N3CCC[C@H]3CO)nc2c1-c1ccc(C#N)cc1
3. Cc1nn2c(-c3cccc(C(F)(F)F)c3)cc(N3CCC[C@H]3CO)nc2c1-c1ccc(C(F)F)cc1
4. COCc1nn2c(-c3cccc(C(F)(F)F)c3)cc(N3CCC[C@H]3CO)nc2c1-c1ccc(OC)cc1

Solution:
1: 70; 2: 250; 3: 69; 4: 7

Batch request: IC50 per item, same order as input.
1. Cc1ccc(-c2c(C)nn3c(-c4cccc(C(F)(F)F)c4)cc(N4CCC[C@H]4CO)nc23)cc1
2. Cc1nn2c(-c3cccc(F)c3)cc(N3CCC[C@H]3CO)nc2c1-c1ccc(Cl)cc1
3. CCOCc1nn2c(-c3ccc(F)cc3)cc(NCCO)nc2c1-c1ccc(C)cc1

Solution:
[45, 93, 90]

// each listed molecule needs a value for IC50
1. CCOc1ccc(-c2c(C)nn3c(-c4ccccc4)cc(N4CCC[C@H]4CO)nc23)cc1
2. Cc1nn2c(-c3cccc(C(F)(F)F)c3)cc(N3CCC[C@H]3CO)nc2c1-c1ccc(F)cc1
3. Cc1nn2c(-c3ccccc3)cc(N3CCC[C@H]3CO)nc2c1-c1ccccc1

Solution:
[130, 140, 780]

Value sought for every listed molecule: IC50.
1. CCc1cccc(-c2cc(N3CCC[C@H]3CO)nc3c(-c4ccc(OC)cc4)c(C)nn23)c1
2. COCc1nn2c(-c3cccc(OC)c3)cc(N3CCC[C@H]3CO)nc2c1-c1ccc(OC)cc1
3. Cc1ccc(-c2cnn3c(-c4cccc(F)c4)cc(N4CCC[C@H]4CO)nc23)cc1
4. C=Cc1ccc(-c2c(C)nn3c(-c4cccc(F)c4)cc(N4CCC[C@H]4CO)nc23)cc1
5. CCOc1ccc(-c2c(C)nn3c(-c4cccc(OC)c4)cc(N4CCC[C@H]4CO)nc23)cc1

Solution:
1. 210
2. 50
3. 440
4. 240
5. 250

Provide each entry's IC50 from the list below.
1. C=Cc1ccc(-c2c(C)nn3c(-c4ccc(F)cc4)cc(N4CCC[C@H]4CO)nc23)cc1
2. COc1cccc(-c2cc(N3CCC[C@H]3CO)nc3c(-c4ccc(C)c(F)c4)c(C)nn23)c1
3. CCCOc1ccc(-c2c(C)nn3c(-c4cccc(F)c4)cc(N4CCC[C@H]4CO)nc23)cc1
4. Cc1ccc(-c2c(C)nn3c(-c4cccc(F)c4)cc(N4CCC[C@H]4CO)nc23)cc1
5. CCOCc1nn2c(-c3cccc(C(F)(F)F)c3)cc(N(C)CCO)nc2c1-c1ccc(Cl)cc1
6. COc1ccc(-c2c(C)nn3c(-c4ccc(F)c(F)c4)cc(N4CCC[C@H]4CO)nc23)cc1F

Solution:
1: 210; 2: 130; 3: 450; 4: 80; 5: 7; 6: 390

* * *

- TEST SYSTEM: human CB1 (cannabinoid receptor 1) (Homo sapiens, UniProt P21554)
- TEST PROTOCOL: CB1 receptor inhibition effect: calcium ion influx assay (Fluo-4 NW) in Chem-1 cells after 1 μM R-(+)-WIN55212-2
- MEASUREMENT SETUP: calcium ion influx in Chem-1 cells expressing human CB1, 1 μM R-(+)-WIN55212-2
TEST READOUT: IC50 (nM)
One number for each entry, in nM.

Reference set, count: 3
CCc1ccc(-c2c(C)nn3c(-c4cccc(Cl)c4)cc(N4CCC[C@H]4CO)nc23)cc1 [Example 174]
220
Cc1cc(-c2c(C)nn3c(-c4ccc(F)cc4)cc(N4CCC[C@H]4CO)nc23)ccc1F [Example 101]
160
Cc1ccc(-c2c(C)nn3c(-c4cccc(C)c4)cc(N4CCC[C@H]4CO)nc23)cc1 [Example 156]
46

Proceeding to the next compound to report its IC50.
Problem: Endpoint output: IC50 of Cc1nn2c(-c3cccc(C(F)(F)F)c3)cc(N3CCC[C@H]3CO)nc2c1-c1ccc(F)c(F)c1 [Example 134] . Value?
Solution: 190
